Data credit: patent US20100075370A1

Each entry below carries its reported LC90.
# System: pBMC from patients with CLL
# assay.procedure: Cytotoxicity of several antineoplastic agents on pBMC (LC90), fixed volume flow cytometry
# Assay type: cell-based, human
# condition.details: pBMC of CLL patient #19, ex vivo; in µg/mL
measured.parameter: LC90

# molecule, val
measured = [
    ("CC[C@]1(O)C[C@H]2CN(CCc3c([nH]c4ccccc34)[C@@](C(=O)OC)(c3cc4c(cc3OC)N(C=O)[C@H]3[C@@](O)(C(=O)OC)[C@H](OC(C)=O)[C@]5(CC)C=CCN6CC[C@]43[C@@H]65)C2)C1 [Oncovin ®, Vincristin]", 0.10),
    ("C[C@]12C=CC(=O)C=C1CC[C@@H]1[C@@H]2[C@@H](O)C[C@@]2(C)[C@H]1CC[C@]2(O)C(=O)CO [Prednisolone ®, Prednisolone]", 0.98),
    ("Nc1nc(Cl)nc2c1ncn2[C@H]1C[C@H](O)[C@@H](CO)O1 [Cladribine ®, Cladribine]", 0.007),
    ("Nc1nc(F)nc2c1ncn2[C@@H]1O[C@H](COP(=O)(O)O)[C@@H](O)[C@@H]1O [Fludarabine phosphate]", 0.50),
    ("O=C1c2c(O)ccc(O)c2C(=O)c2c(NCCNCCO)ccc(NCCNCCO)c21 [Novantrone ®, Mitoxantrone]", 0.07),
]
